Molecular target: human full-length HSP90 (Homo sapiens, UniProt P08238)
Sequence (P08238 whole entry): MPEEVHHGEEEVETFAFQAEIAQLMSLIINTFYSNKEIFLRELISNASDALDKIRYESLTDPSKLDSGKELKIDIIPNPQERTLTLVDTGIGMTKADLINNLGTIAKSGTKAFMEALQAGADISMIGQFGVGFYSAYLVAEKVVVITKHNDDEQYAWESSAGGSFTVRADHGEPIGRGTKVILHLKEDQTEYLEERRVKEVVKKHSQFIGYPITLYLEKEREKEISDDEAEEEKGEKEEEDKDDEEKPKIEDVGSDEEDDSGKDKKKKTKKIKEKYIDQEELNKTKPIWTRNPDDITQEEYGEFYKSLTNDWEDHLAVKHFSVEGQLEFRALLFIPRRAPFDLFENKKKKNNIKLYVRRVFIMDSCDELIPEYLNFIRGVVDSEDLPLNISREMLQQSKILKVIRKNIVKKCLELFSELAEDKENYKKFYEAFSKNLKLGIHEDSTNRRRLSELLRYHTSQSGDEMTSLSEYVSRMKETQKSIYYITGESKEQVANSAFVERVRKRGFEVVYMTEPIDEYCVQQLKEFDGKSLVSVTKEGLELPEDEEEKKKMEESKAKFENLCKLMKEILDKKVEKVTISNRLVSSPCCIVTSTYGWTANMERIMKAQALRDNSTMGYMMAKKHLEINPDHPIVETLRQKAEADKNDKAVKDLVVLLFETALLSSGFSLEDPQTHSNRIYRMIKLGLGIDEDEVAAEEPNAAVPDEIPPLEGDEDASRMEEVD
pIC50: −log10 of the molar value.
Would you kindly list pIC50 for each of these compounds?

Worked cases, answers included:
> print(dat)
                            smiles.notation                           subject.of.test  obs.value
1  COc1ccc(OC)c(-n2c(S)nnc2-c2ccc(O)cc2O)c1  human full-length HSP90 (Homo sapiens, UniProt P08238)     > 5.00
2  O=C(O)c1nnn(-c2ccc(O)cc2O)c1-c1ccc(F)cc1  human full-length HSP90 (Homo sapiens, UniProt P08238)     < 5.00
3  CCOC(=O)c1nnn(-c2cc(Cl)c(O)cc2O)c1-c1ccc(F)cc1  human full-length HSP90 (Homo sapiens, UniProt P08238)     > 5.00

Problem: Dear colleague, I am looking for the recorded pIC50 of the following compound: CCOC(=O)c1nnn(-c2ccc(O)cc2O)c1-c1ccc(F)cc1
Solution: < 5.00
